Test system: Canis familiaris
test protocol: Antisecretory activity was evaluated in adult mongrel dog after iv administration at 5 mg/kg of dose, expressed as reduction of gastric output
Format: functional, Canis lupus familiaris, Stomach
Some compounds, each annotated with its measured Reduction.
// return numeric value only (unit: %, not printed)

CNC(=O)N(C)C1c2ccccc2Oc2cccnc21 (stereo unspecified) :: 38
CN(C(=O)N1CCCCC1)C1c2ccccc2Oc2ncccc21 (stereo unspecified) :: 31

Ask: Fetch value of Reduction on Canis familiaris for CN(C(N)=O)C1c2ccccc2Oc2ncccc21 (stereo unspecified) .
Reply: 30

Ask: Supply Reduction measured with Canis familiaris for CNC(=O)N(C)C1c2ccccc2Oc2ncccc21 (stereo unspecified) .
Reply: 84

Ask: Provide Reduction, system Canis familiaris, entry CNC(=O)NC1c2ccccc2Oc2ncccc21 (stereo unspecified)
Reply: 31

Ask: // fetch Reduction for NC(=O)NC1c2ccccc2Oc2ncccc21 (stereo unspecified) ; system: Canis familiaris
Reply: 36

Ask: Jot down Reduction (Canis familiaris) of CNC(=O)N(C)C1c2cc(C)ccc2Oc2ncccc21 (stereo unspecified) .
Reply: 62

* * *

Test system: Canis familiaris
test protocol: Antisecretory activity was evaluated in adult mongrel dog after iv administration at 5 mg/kg of dose, expressed as reduction of gastric output
Type: functional, Canis lupus familiaris, Stomach
In this section we review reported Reduction values for a set of molecules.

Check out these entries, answers already filled in.
CNC(=O)N(C)C1c2cc(F)ccc2Oc2ncccc21 (stereo unspecified) :: 63%
CNC(=O)N(C)C1c2cccnc2Oc2c(Cl)cccc21 (stereo unspecified) :: <30%
CN1CCN(C(=O)N(C)C2c3ccccc3Oc3ncccc32)CC1 (stereo unspecified) :: <30%
CNC(=O)N(C)C1c2cccnc2Oc2cccc(C(F)(F)F)c21 (stereo unspecified) :: <30%
CNC(=O)N(C)C1c2cc(CO)ccc2Oc2ncccc21 (stereo unspecified) :: <30%

Ask: Return the recorded Reduction value; entry: `CN/C(=N\CCSCc1nc[nH]c1C)NC#N`
Reply: 84%

* * *

Tested on: Canis familiaris
test protocol: Antisecretory activity was evaluated in adult mongrel dog after iv administration at 5 mg/kg of dose, expressed as reduction of gastric output
Type: functional, Canis lupus familiaris, Stomach
Threshold check on Reduction: at or above 60% gives t, strictly below gives f.

Ask: Please check the record CNC(=O)N(C)C1c2cc(Cl)c(C)cc2Oc2ncccc21 (configuration not stated) and state if its Reduction is at or above 60%.
Reply: f

* * *

Test system: Canis familiaris
test protocol: Antisecretory activity was evaluated in adult mongrel dog after po administration at 8 mg/kg of dose, expressed as reduction of gastric output
Type: functional, Canis lupus familiaris, Stomach
Below: a set of entries, each annotated with reported Reduction.

CNC(=O)N(C)C1c2ccc(C)cc2Oc2ncccc21 (centres undefined) :: <30%
CNC(=O)N(C)C1c2cc(C)ccc2Oc2ncccc21 (centres undefined) :: <30%
CN(C(=O)Nc1ccccc1)C1c2ccccc2Oc2ncccc21 (centres undefined) :: <30%
CNC(=O)N(C)C1c2cc(OC)ccc2Oc2ncccc21 (centres undefined) :: <30%
CNC(=O)N(C)C1c2ccccc2Oc2cccnc21 (centres undefined) :: 34%

Please look at the following compound next.
Ask: For the compound CNC(=O)N(C)C1c2ccc(OC)cc2Oc2ncccc21 (centres undefined) , give its reported Reduction.
Reply: <30%

* * *

Attribute: Reduction
Test system: Canis familiaris
test protocol: Antisecretory activity was evaluated in adult mongrel dog after iv administration at 5 mg/kg of dose, expressed as reduction of gastric output
Type: functional, Canis lupus familiaris, Stomach
Kindly provide the numeric value in % only, without the unit symbol.

Reference set, count: 2
CNC(=O)N(C)C1c2ccc(C)cc2Oc2ncccc21 (stereo unspecified) :: 75
CN(C(=O)NC(C)(C)C)C1c2ccccc2Oc2ncccc21 (stereo unspecified) :: 35

Ask: # assay system Canis familiaris: give Reduction of CNC(=O)N(C)C1c2cc(OC)ccc2Oc2ncccc21 (stereo unspecified)
Reply: 51

Ask: Quote Reduction with test system Canis familiaris for CNC(=O)N(C)C1c2ccccc2Sc2ncccc21 (stereo unspecified)
Reply: 80

Ask: Provide Canis familiaris Reduction reading for CN(C(=O)Nc1ccccc1)C1c2ccccc2Oc2ncccc21 (stereo unspecified) .
Reply: 55

Ask: Give Canis familiaris Reduction for the following molecule: CN(C(=O)N1CCOCC1)C1c2ccccc2Oc2ncccc21 (stereo unspecified)
Reply: 64

Ask: Would you please give the reported Reduction of CN(C)C(=O)NC1c2ccccc2Oc2ncccc21 (stereo unspecified) with Canis familiaris?
Reply: 35

Ask: State Reduction on Canis familiaris. Entry: CNC(=O)N(C)C1c2ccc(OC)cc2Oc2ncccc21 (stereo unspecified)
Reply: 54
